- measured_on: HLA-B*07:02
- procedure_text: IEDB peptide-MHC binding, purified MHC/direct/fluorescence; filed as Kd, often an IC50 or EC50 that approximates it; bounds were set here for any values at or beyond the usual limits of such assays
- experimental_setup: source organism: Influenza A virus (A/Hong Kong/516/97(H5N1))
value_kind: Kd

SYINRTGTF ≥ 20 µM

====

- measured_on: HLA-B*18:01
- procedure_text: IEDB peptide-MHC binding, purified MHC/competitive/fluorescence; filed as Kd, often an IC50 or EC50 that approximates it; bounds were set here for any values at or beyond the usual limits of such assays
- experimental_setup: source organism: Vibrio vulnificus CMCP6
pKd: −log10 of the molar value.
value_kind: pKd

KQIVIINPM ≤ 5.30
